Data credit: patent US12371454B2

List of IC50 values.
Target: Kras and SOS1 (biotin-tagged human Kras loaded with GDP, His-tagged human SOS1) (Homo sapiens, UniProt P01116, G12D)
Construct: made in house; host or cells: E. coli (stated for Kras only)
Sequence (P01116 1-188 isoform P01116-2 G12D): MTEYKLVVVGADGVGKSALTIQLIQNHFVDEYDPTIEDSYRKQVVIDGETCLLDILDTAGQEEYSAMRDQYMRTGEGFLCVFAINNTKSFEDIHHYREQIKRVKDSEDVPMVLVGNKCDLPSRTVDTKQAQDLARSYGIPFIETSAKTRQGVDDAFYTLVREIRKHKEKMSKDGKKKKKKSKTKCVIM
Assay: Protein-protein interaction inhibition between Kras and SOS1 (KrasGl2D-SOS PPI) using AlphaScreen
Type: binding
Conditions: AlphaScreen; biotin-tagged human Kras loaded with GDP, His-tagged human SOS1; read-out: KRAS G12D-SOS PPI IC50
Positions of bridges follow the written chain, without caps; N, C: chain ends. Non-standard residues stand in square brackets, D forms with d. Residues, ends and D or L forms follow the SMILES beside them. *: point of attachment. hPhe(3-Cl-4-CF3) = N[C@@H](CCc1ccc(C(F)(F)F)c(Cl)c1)C(=O)O; Phe(3-I) = N[C@@H](Cc1cccc(I)c1)C(=O)O; NMeCha = CN[C@@H](CC1CCCCC1)C(=O)O; NMeChg = CN[C@H](C(=O)O)C1CCCCC1; NMeF = CN[C@@H](Cc1ccccc1)C(=O)O; NMeD = CN[C@@H](CC(=O)O)C(=O)O; NMeL = CN[C@@H](CC(C)C)C(=O)O; NMeA = CN[C@@H](C)C(=O)O; NMeAib = CNC(C)(C)C(=O)O; Piperidide = C1CCN(*)CC1; Pra = C#CC[C@H](N)C(=O)O; Aze = O=C(O)[C@@H]1CCN1; Ac3c = NC1(C(=O)O)CC1; Sar = CNCC(=O)O
Give just the numeric value; nM need not be written.

compound | assayValue
C#CC[C@@H]1NC(=O)[C@H](Cc2cccc(I)c2)NC(=O)CN(C)C(=O)[C@H](Cc2ccccc2)N(C)C(=O)[C@@H]2CCN2C(=O)[C@H](C)N(C)C(=O)[C@H]([C@@H](C)CC)NC(=O)[C@H](CC(C)C)N(C)C(=O)C[C@@H](C(=O)N2CCCCC2)N(C)C(=O)[C@H](CC(C)C)NC(=O)C(C)(C)N(C)C1=O [Compound 1313] ([NMeL]I[NMeA][Aze][NMeF][Sar][Phe(3-I)][Pra][NMeAib]L[NMeD]-Piperidide; lactam N-11) | 65

Query: Value lookup for IC50; key = CC[C@H](C)[C@@H]1NC(=O)[C@H](CC(C)C)N(C)C(=O)C[C@@H](C(=O)N2CCCCC2)N(C)C(=O)[C@H](C2CCCCC2)N(C)C(=O)C2(CC2)NC(=O)[C@@H]2CCCN2C(=O)[C@H](CCc2ccc(C(F)(F)F)c(Cl)c2)NC(=O)CN(C)C(=O)[C@H](CC2CCCCC2)N(C)C(=O)CN(C)C(=O)CN(C)C1=O [Compound 1845] ([NMeL]I[Sar][Sar][NMeCha][Sar][hPhe(3-Cl-4-CF3)]P[Ac3c][NMeChg][NMeD]-Piperidide; lactam N-11)
Result: 0.84

====

Molecular target: Kras and SOS1 (biotin-tagged human Kras loaded with GDP, His-tagged human SOS1) (Homo sapiens, UniProt P01116, G12D)
Construct: made in house; host or cells: E. coli (stated for Kras only)
Experiment: Protein-protein interaction inhibition between Kras and SOS1 (KrasGl2D-SOS PPI) using AlphaScreen
Assay type: binding
Conditions: AlphaScreen; biotin-tagged human Kras loaded with GDP, His-tagged human SOS1; read-out: KRAS G12D-SOS PPI IC50
Positions of bridges follow the written chain, without caps; N, C: chain ends. Non-standard residues stand in square brackets, D forms with d. Residues, ends and D or L forms follow the SMILES beside them. *: point of attachment. hPhe(3-Cl-4-CF3) = N[C@@H](CCc1ccc(C(F)(F)F)c(Cl)c1)C(=O)O; hPhe(3-F,4-CF3) = N[C@@H](CCc1ccc(C(F)(F)F)c(F)c1)C(=O)O; hPhe(4-CF3) = N[C@@H](CCc1ccc(C(F)(F)F)cc1)C(=O)O; NMePhe(3-Cl) = CN[C@@H](Cc1cccc(Cl)c1)C(=O)O; NMeCha = CN[C@@H](CC1CCCCC1)C(=O)O; NMeChg = CN[C@H](C(=O)O)C1CCCCC1; NMeD = CN[C@@H](CC(=O)O)C(=O)O; NMeL = CN[C@@H](CC(C)C)C(=O)O; NMeV = CN[C@H](C(=O)O)C(C)C; d(β3hA) = C[C@@H](N)CC(=O)O; NMeA = CN[C@@H](C)C(=O)O; NMeAib = CNC(C)(C)C(=O)O; Piperidide = C1CCN(*)CC1; Ac5c = NC1(C(=O)O)CCCC1; Sar = CNCC(=O)O
propertyMeasured: IC50
Number first, unit second.

Sample answers from the record:
compound | assayValue
CC[C@H](C)[C@@H]1NC(=O)[C@H](CC(C)C)N(C)C(=O)C[C@@H](C(=O)N2CCCCC2)N(C)C(=O)[C@H](CC(C)C)NC(=O)C(C)(C)N(C)C(=O)[C@H](CC(C)C)NC(=O)[C@H](CCc2ccc(C(F)(F)F)c(F)c2)NC(=O)CN(C)C(=O)[C@H](CC2CCCCC2)N(C)C(=O)CN(C)C(=O)CN(C)C1=O [Compound 969] ([NMeL]I[Sar][Sar][NMeCha][Sar][hPhe(3-F,4-CF3)]L[NMeAib]L[NMeD]-Piperidide; lactam N-11) | 2 nM
CC[C@H](C)[C@@H]1NC(=O)[C@H](CC(C)C)N(C)C(=O)C[C@@H](C)NC(=O)[C@H](C(C)C)N(C)C(=O)C2(CCCC2)NC(=O)[C@@H]2CCCN2C(=O)[C@H](CCc2ccc(C(F)(F)F)c(Cl)c2)NC(=O)CN(C)C(=O)[C@H](Cc2cccc(Cl)c2)N(C)C(=O)CN(C)C(=O)CN(C)C1=O [Compound 1623] (cyclo([Ac5c][NMeV][d(β3hA)][NMeL]I[Sar][Sar][NMePhe(3-Cl)][Sar][hPhe(3-Cl-4-CF3)]P)) | 54 nM

Attention now turns to another entry.
Query: So what does the record say about IC50 for CC[C@H](C)[C@@H]1NC(=O)[C@H](C)N(C)C(=O)C[C@@H](C(=O)N2CCCCC2)N(C)C(=O)[C@H](C2CCCCC2)N(C)C(=O)C2(CCCC2)NC(=O)[C@@H]2CCCN2C(=O)[C@H](CCc2ccc(C(F)(F)F)cc2)NC(=O)CN(C)C(=O)[C@H](CC2CCCCC2)N(C)C(=O)CN(C)C(=O)CN(C)C1=O [Compound 72] ([NMeA]I[Sar][Sar][NMeCha][Sar][hPhe(4-CF3)]P[Ac5c][NMeChg][NMeD]-Piperidide; lactam N-11) ?
Result: 0.47 nM
